melting point by entry:
Just the number please, in °C, no unit attached.

smiles	value.observed
CCOC(=O)c1ccc(-c2ccc(OCCCNC)c(-c3ccc4c(c3)C(C)(C)CCC4(C)C)c2)cc1	141
CCNCCCOc1ccc(-c2ccc(C(=O)OCC)cc2)cc1-c1ccc2c(c1)C(C)(C)CCC2(C)C	148
CCCCNCCCOc1ccc(-c2ccc(C(=O)OCC)cc2)cc1-c1ccc2c(c1)C(C)(C)CCC2(C)C	175
CCOC(=O)c1ccc(-c2ccc(OCCCNC3CC3)c(-c3ccc4c(c3)C(C)(C)CCC4(C)C)c2)cc1	141

Look up melting point for this compound: CCCNCCCOc1ccc(-c2ccc(C(=O)OCC)cc2)cc1-c1ccc2c(c1)C(C)(C)CCC2(C)C
120

* * *

Target: RAR gamma (Homo sapiens, UniProt P13631)
Sequence (P13631 185-454 limits assumed): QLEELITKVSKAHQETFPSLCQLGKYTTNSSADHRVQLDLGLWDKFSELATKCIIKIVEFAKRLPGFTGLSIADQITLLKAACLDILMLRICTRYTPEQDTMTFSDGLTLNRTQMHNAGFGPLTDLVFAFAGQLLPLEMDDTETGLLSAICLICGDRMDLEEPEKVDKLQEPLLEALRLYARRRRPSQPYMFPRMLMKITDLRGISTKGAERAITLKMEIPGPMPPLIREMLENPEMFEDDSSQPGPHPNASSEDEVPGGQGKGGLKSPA
Assay: Transactivation test (Kd apparent), RAR gamma
Conditions: HeLa cells stably transfected with ERE-βGlob-Luc-SV-Neo reporter and RAR γ ER-DBD-puro; luciferase; Schild regression vs reference antagonist; read-out: RAR gamma Kd app
# Lookup of reported pKd keyed by entry
A value of pKd is the negative decimal logarithm of a concentration given in moles per litre.

Solved entries:
smiles	readout.name	value.observed
CCNCCCOc1ccc(-c2ccc(C(=O)O)cc2)cc1-c1ccc2c(c1)C(C)(C)CCC2(C)C	pKd	6.60
CC(C)NCCOc1ccc(-c2ccc(C(=O)O)cc2)cc1-c1ccc2c(c1)C(C)(C)CCC2(C)C	pKd	6.92

Now let's try a different one.
Give its pKd value. Item: CC1(C)CCC(C)(C)c2cc(-c3cc(-c4ccc(C(=O)O)cc4)ccc3OCCCN)ccc21
8.10

* * *

molecular target: RAR beta (Homo sapiens, UniProt P10826); test: Transactivation test (Kd apparent), RAR beta; details: HeLa cells stably transfected with ERE-βGlob-Luc-SV-Neo reporter and RAR β ER-DBD-puro; luciferase; Schild regression vs reference antagonist; read-out: RAR beta Kd app
Sequence (P10826 183-417 limits assumed): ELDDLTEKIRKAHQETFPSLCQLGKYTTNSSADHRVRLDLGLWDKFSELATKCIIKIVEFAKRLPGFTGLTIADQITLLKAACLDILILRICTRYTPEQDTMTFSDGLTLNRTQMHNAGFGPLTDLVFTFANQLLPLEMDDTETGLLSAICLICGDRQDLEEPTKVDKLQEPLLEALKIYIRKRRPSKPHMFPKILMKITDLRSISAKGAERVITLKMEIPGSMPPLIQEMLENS
readout.name: pKd
// pKd here means minus log10 of the molar concentration (mol/L)

The examples below pair each entry with its known result.
smiles	pKd
CC1(C)CCC(C)(C)c2cc(-c3cc(-c4ccc(C(=O)O)cc4)ccc3OCCCCN)ccc21	5.70
CC1(C)CCC(C)(C)c2cc(-c3cc(-c4ccc(C(=O)O)cc4)ccc3OCCCCNC3CC3)ccc21	5.40
CC(C)NCCCCOc1ccc(-c2ccc(C(=O)O)cc2)cc1-c1ccc2c(c1)C(C)(C)CCC2(C)C	6.30

// lookup pKd for CC1(C)CCC(C)(C)c2cc(-c3cc(-c4ccc(C(=O)O)cc4)ccc3OCCCCCN)ccc21
5.70

Recorded pKd of CC(C)NCCOc1ccc(-c2ccc(C(=O)O)cc2)cc1-c1ccc2c(c1)C(C)(C)CCC2(C)C , please.
5.40

Value lookup for pKd; key = CC1(C)CCC(C)(C)c2cc(-c3cc(-c4ccc(C(=O)O)cc4)ccc3OCCCCCNC3CC3)ccc21
6.30

Item CC1(C)CCC(C)(C)c2cc(-c3cc(-c4ccc(C(=O)O)cc4)ccc3OCCNC3CC3)ccc21 has what recorded pKd?
7.22
